Each recorded value in this set is attributed to ChEMBL document CHEMBL4261575.

Target: Human immunodeficiency virus type 1 reverse transcriptase (Human immunodeficiency virus 1) (UniProt Q72547)
Experiment: Inhibition of HIV1 reverse transcriptase RNase H activity using 18-nucleotide 3'-fluorescein-labeled RNA/5'-[…]-labeled DNA hybrid as substrate assessed as remaining activity at 100 uM after 1 hr by fluorescence assay relative to control
Recorded Activity for the following molecules
Number first, unit second.

Worked cases, Activity given:
O=C(O)CCCC(=O)NC1CCCCCCC1 ... 76.3%
Cc1ccc(C2NC(=O)C(O)=C2C(=O)c2cccs2)cc1 (stereo not given) ... 81.8%
Cc1nc(N)sc1C(=O)N/N=C\c1ccc(O)c([N+](=O)[O-])c1 ... 55%
C[S+]([O-])CCC(NS(=O)(=O)c1ccccc1)C(=O)O (stereo not given) ... 86%
CCOc1cccc(/C=C2\SC(=O)NC2=O)c1O ... 60%
CC(=O)c1cc2c(cc1NC(=O)CCC(=O)O)OCO2 ... 89.5%

Inquiry: Complete the entry with Activity for CCc1nnc(NC(=O)C(=O)NCCOC(=O)c2ccccc2)s1
Reply text: 77.9%
